biological target: UniProtKB P30556; experiment: BRET β-arrestin2 biosensor assay, higher receptor expression (hAT1R 5 ng/well), HEK293 cells; type: cell-based; conditions: High AT1R Expression
Sequence (P30556 whole entry): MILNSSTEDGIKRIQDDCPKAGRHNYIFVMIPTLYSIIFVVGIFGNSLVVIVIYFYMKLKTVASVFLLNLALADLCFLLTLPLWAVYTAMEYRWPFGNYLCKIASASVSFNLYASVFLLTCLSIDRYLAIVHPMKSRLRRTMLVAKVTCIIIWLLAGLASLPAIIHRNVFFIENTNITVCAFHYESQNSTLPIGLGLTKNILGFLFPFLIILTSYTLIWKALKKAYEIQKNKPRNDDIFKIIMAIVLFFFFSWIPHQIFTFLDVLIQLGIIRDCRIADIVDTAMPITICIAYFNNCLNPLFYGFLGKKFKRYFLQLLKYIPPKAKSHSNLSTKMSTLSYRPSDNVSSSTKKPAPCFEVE
Returns the class for an entry based on its EC50. Class ranges: lo (below 0.02 µM), med (0.02 µM to below 0.08 µM), hi (0.08 µM or more)

{"compound": "CCc1nc2c(C)cc(C)nc2n1Cc1ccc(-c2cc(-c3ccccc3OC)ccc2-c2nn[nH]n2)cc1", "labelValue": "lo"}
{"compound": "CCCC1=NC2(CCCC2)C(=O)N1Cc1ccc(-c2cc(-c3ccccc3)ccc2-c2nn[nH]n2)cc1", "labelValue": "lo"}
{"compound": "CCCCc1nc(Cl)c(C(=O)O)n1Cc1ccc(-c2cc(-c3cccc4[nH]ccc34)ccc2-c2nn[nH]n2)cc1", "labelValue": "lo"}
{"compound": "CCc1nc2c(C)cc(C)nc2n1Cc1ccc(-c2cc(-c3ccc(F)cc3F)ccc2-c2nn[nH]n2)cc1", "labelValue": "lo"}
{"compound": "CCCCC(=O)N(Cc1ccc(-c2cc(-c3ccccc3)ccc2-c2nn[nH]n2)cc1)C1(C(=O)O)CCN(c2ccccc2)CC1", "labelValue": "hi"}
{"compound": "CCCCC1=NC2(CCCC2)C(=O)N1Cc1ccc(-c2cc(Nc3ccccc3)ccc2-c2nn[nH]n2)cc1", "labelValue": "hi"}
{"compound": "CCCCC(=O)N(Cc1ccc(-c2cc(-c3ccccc3)ccc2-c2nn[nH]n2)cc1)C1(C(=O)O)CCCCC1", "labelValue": "lo"}
{"compound": "CCCCC(=O)N(Cc1ccc(-c2cc(N3CCCC(C)C3)ccc2-c2nn[nH]n2)cc1)C1(C(=O)O)CCCCC1 (stereo not drawn)", "labelValue": "hi"}
{"compound": "CCc1nc2c(C)cc(C)nc2n1Cc1ccc(-c2cc(-c3cccc(C)c3)ccc2-c2nn[nH]n2)cc1", "labelValue": "lo"}
{"compound": "CCCCc1ncc(C(=O)NC2CCC2)n1Cc1ccc(-c2cc(-c3ccccc3)ccc2-c2nn[nH]n2)cc1", "labelValue": "med"}
{"compound": "CCCCC1=NC2(CCCC2)C(=O)N1Cc1ccc(-c2cc(-n3ccc4ccc(F)cc43)ccc2-c2nn[nH]n2)cc1", "labelValue": "med"}
{"compound": "CCCn1cc(-c2ccc(-c3nnn[nH]3)c(-c3ccc(Cn4c(CC)nc5c(C)cc(C)nc54)cc3)c2)nn1", "labelValue": "lo"}
{"compound": "CCc1nc2c(C)cc(C)nc2n1Cc1ncc(-c2cc(-c3ccccc3)ccc2-c2nnn[nH]2)cn1", "labelValue": "hi"}
{"compound": "CCc1nc2c(C)cc(C)nc2n1Cc1ccc(-c2cc(Oc3nccs3)ccc2-c2nn[nH]n2)cc1", "labelValue": "med"}
